TEST_SYSTEM: T1, SARS-CoV-2 spike glycoprotein S1+S2 extracellular domain (SARS-CoV-2, reference sequence, UniProt P0DTC2)
T1 construct: also called full-length spike glycoprotein ectodomain
METHOD_DESCRIPTION: ELISA
This listing pairs binders with measured OD450.
Output spec: scalar in OD450, unitless text.

BINDER | OD450 / OD450
FD 5E (antibody, V domains shown, source: HEK293T, transfected; culture supernatant or purified) VH: EVQLVESGGVVVQPGGSLRLSCAASGFTFDDYAMHWVRQAPGKGLEWVSLISWDGGSTYYADSVKGRFTISRDNSKNSLYLQMNSLRAEDTALYYCAKDSVRFRYYYGMDVWGQGTTVTVSS VL: EIVLTQSPATLSLSPGERATLSCRASQSVSSYLAWYQQKPGQAPRLLIYDASNRATGIPARFSGSGSGTDFTLTISSLEPEDFAVYYCQQRSNWPLTFGPGTKVDIK | 0.34

Prompt line: Which OD450 is listed for FM 7B (antibody, V domains shown, source: HEK293T, transfected; culture supernatant or purified) VH: EVQLVQSGAEVKKPGASVKVSCKASGYTFTSYAMHWVRQAPGQRLEWMGWINTGNGNTKYSQKFQGRVTITRDTSASTAYMELSSLRSEDTAVYYCARDPTYCSSTSCYPFSWFDPWGQGTLVTVSS VL: NFMLTQPPSVSVAPGQTARITCGGNNIGSKSVHWYQQKPGQAPVLVVYDDSDRPSGIPERFSGSNSGNTATLTISRVEAGDEADYYCQVWDSTGDHSWVFGGGTKLTVL ?
Response line: 1.8
